# Tested on: HCT-15 colon
# Test Description: NCI tumour cell line growth inhibition, 48 h
*1 amine or outer side, *2 acyl side, *3 side chain or, on linkers, in order; H or OH if unused. Where a SMILES comes first, the peptide text is derived from it. The star is where a group is joined. γGlu = O=C(O)[CH](CCC(=O)[*:2])N[*:1]; NHOH = ON*
Observable: TGI

So what's the measured TGI for this one? N#Cc1cnc2ccc(NCc3cnc[nH]3)cc2c1Nc1ccc(F)c(Cl)c1
> 100 µM

Entry Oc1ccc(CCNc2nc3ccccc3c3[nH]c4ccccc4c23)cc1O : reported TGI = ?
3.95 µM

What value of TGI has been recorded for this entry: O=C(O)CSC1=NCCN1
> 100 µM

Reported TGI, compound c1ccc2[nH]c(-c3ccc(Nc4nc(N5CCCC5)nc5[nH]ncc45)cc3)nc2c1 : ____
0.763 µM

If you can, please state the reported TGI value of Cc1cnoc1/N=C1\C=C(Nc2oncc2C)C(=O)c2ccccc21 .
> 100 µM

Data request, read-out TGI, for CCOP(=O)(OCC)/C(C#N)=C/c1nc[nH]c1C
> 100 µM

Consider the compound CSC(=Nc1ccccc1)c1c(C)[nH]n(-c2ccccc2)c1=O and give its measured TGI.
> 100 µM

Request the reported TGI associated with COc1ccc(-c2nn3ncccc3c2-c2ccnc(Nc3ccc(F)c(F)c3)n2)cc1
> 25 µM

Param item = O=c1c(-c2cccc3ccccc23)c(-c2cccc3ccccc23)c1=O ; retrieve measured TGI.
> 52.9 µM

Fill in: TGI of CCN(CC)c1c(-c2c(OC(C)C)c(=O)c2=O)c(=O)n2ccsc2c1OC(C)=O is ___
> 100 µM

Request the reported TGI associated with CC(C)(C)CNCCO
> 100 µM

Reported TGI for Cc1cccc(-c2nc(=S)[nH][nH]2)c1 : what is it?
> 100 µM

GET /values?readout=TGI&item= Nc1nc(N)c2cc(-c3cc4ccccc4[nH]3)ccc2n1
55 µM

TGI lookup needed for CN(C)c1ccc(-c2c(C#N)c(-c3ccccc3)n(NS(=O)(=O)c3ccccc3)c(=O)c2C#N)cc1 , thanks.
> 100 µM

Recorded TGI of CC(C)CC(NC(=O)C(O)C(N)Cc1ccccc1)C(=O)O (configuration not stated) , please.
> 100 µM

# input compound: COC(=O)C1=C(C(=O)OC)C23CC4CCC2(C(=O)C1O3)C4(C)C (configuration not stated) ; wanted: its TGI
> 100 µM

Which value of TGI has been reported for CCCN1CCC(Oc2cc(Nc3nc(Nc4cccc(F)c4C(N)=O)c4cc[nH]c4n3)c(OC)cc2Cl)CC1 in the records?
6.84 µM

May I ask what TGI has been recorded for Clc1cccc(-c2cc(-c3ccc4c(c3)OCCO4)[nH]n2)c1 ?
33.5 µM

Which TGI reading was recorded for the compound CCO/C(O)=c1/s/c(=C2/SC(=S)N(c3ccc(C)cc3)C2=O)n(-c2ccccc2)c1=N ?
> 100 µM

Look at this compound and give its reported TGI. C[C@]12CC[C@H]3[C@@H](CC=C4C[C@@H](N5CCCC5)CC[C@@]43C)[C@@H]1C/C(=C\c1ccc([N+](=O)[O-])cc1)[C@@H]2O
28.4 µM

Give its TGI value. Item: N#Cc1nc2cc(Cl)c(Cl)cc2nc1-c1ccc(Cl)cc1
> 100 µM

Name the reported TGI value associated with the compound CN1CCN(c2ccc3nc(-c4[nH]ncc4Nc4ncnc5[nH]ccc45)[nH]c3c2)CC1
13.3 µM

Need TGI, item O=C1O/C(=C(\Br)c2ccc([N+](=O)[O-])cc2)c2ccccc21
> 81.5 µM

So what's the measured TGI for this one? NC(CCC(=O)NC(CCC(=O)NO)C(=O)NCC(=O)O)C(=O)O (configuration not stated) (γGlu-Glu(NHOH)-Gly-OH; configuration not given here)
> 100 µM

Please look up its TGI: Cc1ccc(S(=O)(=O)N(CC(O)COc2ccccc2)c2c(F)c(F)c(F)c(F)c2F)cc1 (configuration not stated)
33 µM

Please report the recorded TGI for C#CCOC(=O)C=[N+]=[N-] .
> 10 µM

// TGI lookup, key: CCOP(=O)(OCC)C(C(=O)OC)C(=O)C(=O)Nc1cccc([N+](=O)[O-])c1 (configuration not stated)
> 100 µM

May I ask what TGI has been recorded for CC1=NN(c2ccccc2)C(=O)/C1=C1\SC(c2ccccc2)(c2ccccc2)c2ccccc21 ?
> 100 µM

# query: TGI of entry CCOC(=O)Cn1nnc2ccc(Nc3nc4ccccc4nc3C(=O)OCC)cc21
> 100 µM

I'd like to know its TGI. The compound in question is C=C(C)[C@@H]1CC[C@]2(C(=O)OC)CC[C@]3(C)[C@H](CC[C@@H]4[C@@](C)(CCc5nn[nH]n5)[C@H](C(=C)C)CC[C@]43C)[C@@H]12
35.7 µM

For the compound shown here, CCOC(=O)c1nc2ccccc2nc1Nc1cc(OC)c(OC)c(OC)c1 , give the reported TGI.
> 100 µM

Which TGI value is on record for COc1ccc2c(c1)c(-c1ccc(-c3cn(C)c4ccc(OC)cc34)s1)cn2C ?
> 100 µM

Any idea what its TGI is? The compound is O=C(Nc1ccccc1/C=C/c1n[nH]c2ccccc12)c1ccccc1
8.53 µM

Report TGI for CN(C)CC1CCC/C(=C\c2ccc(Cl)c(Cl)c2)C1=O (configuration not stated) please.
6.33 µM

What value of TGI has been recorded for this entry: C/C(=C\CCC1=CC(=O)OC1)CCC1C2C(=O)CC(C)[C@@]3(C)CC[C@]1(C)[C@@]23C (some centres not stated)
> 10 µM

// lookup TGI for Cc1c2ccccc2c(/C=N/NC(=O)CSCC(=O)N/N=C/c2c3ccccc3c(C)c3ccccc23)c2ccccc12
> 100 µM

What TGI value was documented for this compound, CCN(Cc1ccccc1)c1ccc(/C=C2\COc3ccccc3C2=O)cc1 ?
> 1000 µM

Given Cc1cccc(-c2cc(=O)c3cccnc3[nH]2)c1 , state its recorded TGI.
> 100 µM

Please report the recorded TGI for c1ccc(CCCN2C3CCC2CN(CCOC(c2ccccc2)c2ccccc2)C3)cc1 .
18.1 µM

Any idea what TGI was measured for CN(C)CCNc1c(O)c2c(c(O)c1Cl)C(=O)C=CC2=O ?
4.29 µM

Record request: TGI value, item NCCNCCNCc1c2ccccc2c(CNCCNCCN)c2ccccc12
> 100 µM

Look at this compound and give its reported TGI. CC(=O)Oc1ccc2c(c1)O/C(=C\c1ccc(N(C)C)cc1)C2=O
> 100 µM
